All figures here come from ChEMBL document CHEMBL3751750.

assayed.target: Neutral amino acid transporter B(0) (Homo sapiens, UniProt Q15758)
Sequence (Q15758 whole entry): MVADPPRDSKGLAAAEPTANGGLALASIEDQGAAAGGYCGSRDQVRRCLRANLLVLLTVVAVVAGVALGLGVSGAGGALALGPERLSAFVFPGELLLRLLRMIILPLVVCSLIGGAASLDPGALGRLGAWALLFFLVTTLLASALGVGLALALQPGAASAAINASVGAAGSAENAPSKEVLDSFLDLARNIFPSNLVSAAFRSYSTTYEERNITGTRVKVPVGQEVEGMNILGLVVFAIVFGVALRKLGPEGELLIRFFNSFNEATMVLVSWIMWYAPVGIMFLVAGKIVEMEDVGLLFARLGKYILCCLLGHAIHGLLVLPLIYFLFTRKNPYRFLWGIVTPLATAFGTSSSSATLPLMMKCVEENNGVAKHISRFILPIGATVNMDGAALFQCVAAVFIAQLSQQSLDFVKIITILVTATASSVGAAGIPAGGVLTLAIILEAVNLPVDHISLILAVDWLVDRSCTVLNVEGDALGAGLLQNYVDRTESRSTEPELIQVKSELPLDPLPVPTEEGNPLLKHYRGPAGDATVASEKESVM
assay.details: Inhibition of ASCT2-mediated glutamine transport in human HEK293 cells using [3H]-glutamine after 15 mins by scintillation counting
Format: cell-based
Criterion: IC50 strictly less than 30 µM. Met: Criterion met. Not met: Criterion not met.

**Q:** # TODO verify IC50 < 30 µM strictly for this molecule: COc1ccc(Oc2ccccc2CN(CC[C@H](N)C(=O)O)Cc2ccccc2Oc2ccc(OC)cc2)cc1
**A:** Criterion met

**Q:** # TODO verify IC50 < 30 µM strictly for this molecule: N[C@@H](CCN(Cc1ccccc1Oc1ccc(Cl)cc1)Cc1ccccc1Oc1ccc(Cl)cc1)C(=O)O
**A:** Criterion met

**Q:** # TODO verify IC50 < 30 µM strictly for this molecule: N[C@@H](CCC(=O)Nc1ccc([N+](=O)[O-])cc1)C(=O)O
**A:** Criterion not met

**Q:** # TODO verify IC50 < 30 µM strictly for this molecule: N[C@@H](CCN(Cc1ccccc1OCc1ccc(Cl)cc1)Cc1ccccc1OCc1ccc(Cl)cc1)C(=O)O
**A:** Criterion not met

**Q:** # TODO verify IC50 < 30 µM strictly for this molecule: N[C@@H](CCN(Cc1ccccc1OCc1ccccn1)Cc1ccccc1OCc1ccccn1)C(=O)O
**A:** Criterion not met

**Q:** # TODO verify IC50 < 30 µM strictly for this molecule: Cc1ccccc1COc1ccccc1CN(CC[C@H](N)C(=O)O)Cc1ccccc1OCc1ccccc1C
**A:** Criterion met

**Q:** # TODO verify IC50 < 30 µM strictly for this molecule: COc1cccc(Oc2ccccc2CN(CC[C@H](N)C(=O)O)Cc2ccccc2Oc2cccc(OC)c2)c1
**A:** Criterion not met

**Q:** # TODO verify IC50 < 30 µM strictly for this molecule: N[C@@H](CCN(Cc1ccccc1OCc1cccnc1)Cc1ccccc1OCc1cccnc1)C(=O)O
**A:** Criterion not met

**Q:** # TODO verify IC50 < 30 µM strictly for this molecule: N[C@@H](CCN(Cc1ccccc1Oc1ccccc1F)Cc1ccccc1Oc1ccccc1F)C(=O)O
**A:** Criterion not met

**Q:** # TODO verify IC50 < 30 µM strictly for this molecule: Cc1ccc(COc2ccccc2CN(CC[C@H](N)C(=O)O)Cc2ccccc2OCc2ccc(C)cc2)cc1
**A:** Criterion met

**Q:** # TODO verify IC50 < 30 µM strictly for this molecule: N[C@@H](CCN(Cc1ccccc1Oc1ccccn1)Cc1ccccc1Oc1ccccn1)C(=O)O
**A:** Criterion not met

**Q:** # TODO verify IC50 < 30 µM strictly for this molecule: N[C@@H](CCN(Cc1ccccc1OCc1ccccc1Cl)Cc1ccccc1OCc1ccccc1Cl)C(=O)O
**A:** Criterion not met

**Q:** # TODO verify IC50 < 30 µM strictly for this molecule: N[C@@H](CCN(Cc1ccccc1Oc1ccc(F)cc1)Cc1ccccc1Oc1ccc(F)cc1)C(=O)O
**A:** Criterion not met

**Q:** # TODO verify IC50 < 30 µM strictly for this molecule: N[C@@H](CCN(Cc1ccccc1OCc1cccc(Cl)c1)Cc1ccccc1OCc1cccc(Cl)c1)C(=O)O
**A:** Criterion not met

**Q:** # TODO verify IC50 < 30 µM strictly for this molecule: COc1cccc(COc2ccccc2CN(CC[C@H](N)C(=O)O)Cc2ccccc2OCc2cccc(OC)c2)c1
**A:** Criterion met
